Recorded Activity, one value per entry.
# TESTED_SYSTEM: Tyrosine-protein kinase JAK2 (Homo sapiens, UniProt O60674)
# Sequence (O60674 whole entry): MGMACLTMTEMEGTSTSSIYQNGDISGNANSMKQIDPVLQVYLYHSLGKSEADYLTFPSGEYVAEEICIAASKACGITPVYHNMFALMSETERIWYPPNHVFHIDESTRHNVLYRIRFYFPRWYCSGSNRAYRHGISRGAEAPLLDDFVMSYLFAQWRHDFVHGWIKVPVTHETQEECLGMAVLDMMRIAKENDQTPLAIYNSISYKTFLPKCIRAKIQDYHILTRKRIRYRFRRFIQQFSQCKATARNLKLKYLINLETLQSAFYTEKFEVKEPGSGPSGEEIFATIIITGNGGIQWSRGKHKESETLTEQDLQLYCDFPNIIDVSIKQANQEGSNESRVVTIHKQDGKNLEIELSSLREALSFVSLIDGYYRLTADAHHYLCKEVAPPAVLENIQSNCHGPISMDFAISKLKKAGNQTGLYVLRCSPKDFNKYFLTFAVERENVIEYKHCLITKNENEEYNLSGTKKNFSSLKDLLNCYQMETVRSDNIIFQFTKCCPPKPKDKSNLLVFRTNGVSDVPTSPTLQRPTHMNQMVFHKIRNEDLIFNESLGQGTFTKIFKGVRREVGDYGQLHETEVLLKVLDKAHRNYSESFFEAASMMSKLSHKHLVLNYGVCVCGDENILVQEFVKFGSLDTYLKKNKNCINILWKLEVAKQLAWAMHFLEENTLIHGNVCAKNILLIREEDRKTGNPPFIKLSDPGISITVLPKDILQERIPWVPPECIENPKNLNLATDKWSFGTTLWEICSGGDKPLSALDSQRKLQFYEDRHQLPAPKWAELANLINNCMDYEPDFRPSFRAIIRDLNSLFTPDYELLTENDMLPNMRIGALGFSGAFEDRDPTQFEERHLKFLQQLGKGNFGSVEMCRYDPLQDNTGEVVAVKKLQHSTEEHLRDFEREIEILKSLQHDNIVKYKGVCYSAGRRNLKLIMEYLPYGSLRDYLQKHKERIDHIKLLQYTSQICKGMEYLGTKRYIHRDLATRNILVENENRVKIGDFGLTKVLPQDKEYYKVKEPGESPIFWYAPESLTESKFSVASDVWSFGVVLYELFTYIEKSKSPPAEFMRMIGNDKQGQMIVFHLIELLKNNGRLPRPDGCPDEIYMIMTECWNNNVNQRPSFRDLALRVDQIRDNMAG
# ASSAY_REMARKS: Inhibition of human JAK2 (808 to end residues) assessed as residual activity at 100 nM using KTFCGTPEYLAP as substrate after 40 mins in presence of [gamma33P]-ATP by scintillation counting based radiometric assay relative to control
Please append the unit to your numeric answer.

compound=CCN1CCN(c2ccc(Nc3ncc(F)c(-c4cnn(C(C)C)c4)n3)cc2F)CC1 tested_system="Tyrosine-protein kinase JAK2 (Homo sapiens, UniProt O60674)" experimental_endpoint=Activity test_result=17%

According to the records, this compound `Cc1cnc(Nc2ccc(N3CCN(C)CC3)c(F)c2)nc1-c1cnn(C(C)C)c1` displays Activity of 3%

Record `CC(C)n1cc(-c2nc(Nc3ccc(N4CCC(N(C)C)CC4)c(F)c3)ncc2F)cn1` , field Activity: 6%

* * *

# TESTED_SYSTEM: Tyrosine-protein kinase JAK1 (Homo sapiens, UniProt P23458)
# Sequence (P23458 whole entry): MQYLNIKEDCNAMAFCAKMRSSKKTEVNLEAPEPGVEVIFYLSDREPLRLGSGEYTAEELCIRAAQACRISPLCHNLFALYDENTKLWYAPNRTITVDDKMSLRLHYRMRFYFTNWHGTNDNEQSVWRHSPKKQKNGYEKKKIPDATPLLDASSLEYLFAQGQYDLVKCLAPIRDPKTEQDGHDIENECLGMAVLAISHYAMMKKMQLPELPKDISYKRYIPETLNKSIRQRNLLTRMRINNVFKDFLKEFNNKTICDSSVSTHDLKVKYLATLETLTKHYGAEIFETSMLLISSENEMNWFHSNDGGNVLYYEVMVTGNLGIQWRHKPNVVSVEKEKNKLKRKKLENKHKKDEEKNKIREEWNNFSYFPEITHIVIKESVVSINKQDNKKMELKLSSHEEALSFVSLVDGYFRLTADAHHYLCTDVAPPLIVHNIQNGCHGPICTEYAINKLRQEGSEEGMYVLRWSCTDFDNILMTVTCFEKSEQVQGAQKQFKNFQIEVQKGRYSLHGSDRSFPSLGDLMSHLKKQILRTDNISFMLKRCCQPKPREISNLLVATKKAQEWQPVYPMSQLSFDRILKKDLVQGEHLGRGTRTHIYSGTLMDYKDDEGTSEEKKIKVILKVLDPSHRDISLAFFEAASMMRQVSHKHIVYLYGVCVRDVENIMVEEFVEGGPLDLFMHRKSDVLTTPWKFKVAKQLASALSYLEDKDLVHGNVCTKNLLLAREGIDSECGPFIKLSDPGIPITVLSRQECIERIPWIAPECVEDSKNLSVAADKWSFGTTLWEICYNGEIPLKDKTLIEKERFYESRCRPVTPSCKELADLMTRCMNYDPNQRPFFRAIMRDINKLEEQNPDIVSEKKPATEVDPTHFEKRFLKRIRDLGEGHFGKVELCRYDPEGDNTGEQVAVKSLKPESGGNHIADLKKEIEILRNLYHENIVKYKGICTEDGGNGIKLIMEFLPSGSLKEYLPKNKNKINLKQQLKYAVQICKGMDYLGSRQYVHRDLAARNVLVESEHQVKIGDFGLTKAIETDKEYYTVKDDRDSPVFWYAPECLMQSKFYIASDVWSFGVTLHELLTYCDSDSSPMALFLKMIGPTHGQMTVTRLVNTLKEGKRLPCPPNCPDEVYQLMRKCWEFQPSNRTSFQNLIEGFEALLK
# ASSAY_REMARKS: Inhibition of human JAK1 (866 to end residues) assessed as residual activity at 100 nM using GEEPLYWSFPAKK as substrate after 40 mins in presence of [gamma33P]-ATP by scintillation counting based radiometric assay relative to control
EXPERIMENTAL_ENDPOINT: Activity
The reply must contain the numeric value and, after it, the unit.

compound=CCCn1cc(-c2nc(Nc3ccc(N4CCN(C)CC4)c(F)c3)ncc2F)cn1 tested_system="Tyrosine-protein kinase JAK1 (Homo sapiens, UniProt P23458)" test_result=48%

Query `Cc1cnc(Nc2ccc(N3CCC(N(C)C)CC3)c(F)c2)nc1-c1cnn(C(C)C)c1` yields Activity of 17%

Reported Activity for `CCN1CCN(c2ccc(Nc3ncc(F)c(-c4cnn(C(C)C)c4)n3)cc2F)CC1` was 62%

Lab note: measured Activity of `CCCCCCN(C)C1CCN(c2ccc(Nc3ncc(C)c(-c4cnn(C(C)C)c4)n3)cc2F)CC1` was 26%

// Activity lookup, compound = `CCCCN1CCC(n2cc(-c3nc(Nc4ccc(N5CCN(C)CC5)c(F)c4)ncc3F)cn2)CC1` , result: 68%

* * *

# Tested on: MOLM-13
# ASSAY_REMARKS: Antiproliferative activity against FLT3-ITD-positive human MOLM13 cells assessed as reduction in cell growth after 72 hrs by MTT assay
# Assay type: functional, cell-based
# CONDITION_SUMMARY: MOLM-13, 72 h
EXPERIMENTAL_ENDPOINT: IC50 (nM)
Answer with a number only, understood to be in nM.

The examples below pair each entry with its known result.
molecule=CC(C)n1cc(-c2nc(Nc3ccc(N4CCC(N5CCCCC5)CC4)c(F)c3)ncc2F)cn1 experimental_endpoint=IC50 test_result=100
molecule=Cc1cnc(Nc2ccc(N3CCC(N(C)C)CC3)c(F)c2)nc1-c1cnn(C(C)C)c1 experimental_endpoint=IC50 test_result=100
molecule=CC(C)n1cc(-c2nc(Nc3ccc(N4CCC(N(C)C)CC4)c(F)c3)ncc2F)cn1 experimental_endpoint=IC50 test_result=540

Query molecule follows.
Note to self: IC50 of `CCCN1CCC(n2cc(-c3nc(Nc4ccc(N5CCN(C)CC5)c(F)c4)ncc3F)cn2)CC1` with MOLM-13 was 190

* * *

# TESTED_SYSTEM: Tyrosine-protein kinase JAK2 (Homo sapiens, UniProt O60674)
# ASSAY_REMARKS: Inhibition of human JAK2 (808 to end residues) assessed as residual activity at 100 nM using KTFCGTPEYLAP as substrate after 40 mins in presence of [gamma33P]-ATP by scintillation counting based radiometric assay relative to control
Activity values, listed per item
Give the number first and the unit second.

Illustrative cases are given below, each with its answer.
compound=CCOCCN(C)C1CCN(c2ccc(Nc3ncc(C)c(-c4cnn(C(C)C)c4)n3)cc2F)CC1 experimental_endpoint=Activity test_result=9%
compound=CC(C)n1cc(-c2nc(Nc3ccc(N4CCC(N5CCCCC5)CC4)c(F)c3)ncc2F)cn1 experimental_endpoint=Activity test_result=8%
compound=Cc1cnc(Nc2ccc(N3CCC(N(C)CCN4CCOCC4)CC3)c(F)c2)nc1-c1cnn(C(C)C)c1 experimental_endpoint=Activity test_result=23%
compound=Cc1cnc(Nc2ccc(N3CCC(N(C)CC4CC4)CC3)c(F)c2)nc1-c1cnn(C(C)C)c1 experimental_endpoint=Activity test_result=15%
compound=CCCn1cc(-c2nc(Nc3ccc(N4CCN(CC)CC4)c(F)c3)ncc2F)cn1 experimental_endpoint=Activity test_result=27%
compound=CCCn1cc(-c2nc(Nc3ccc(N4CCN(C)CC4)c(F)c3)ncc2F)cn1 experimental_endpoint=Activity test_result=19%
compound=CC(C)n1cc(-c2nc(Nc3ccc(N4CCN(C5CCN(C)CC5)CC4)c(F)c3)ncc2F)cn1 experimental_endpoint=Activity test_result=10%
compound=CCCCCCN(C)C1CCN(c2ccc(Nc3ncc(C)c(-c4cnn(C(C)C)c4)n3)cc2F)CC1 experimental_endpoint=Activity test_result=18%

`Cc1cnc(Nc2ccc(N3CCC(N(C)C)CC3)c(F)c2)nc1-c1cnn(C(C)C)c1` has a reported Activity of 5%

Recorded Activity (compound `CCN1CCN(c2ccc(Nc3ncc(F)c(-c4cnn(C(C)C)c4)n3)c(F)c2)CC1` ): 39%

The reported value for `Cc1cnc(Nc2ccc(N3CCC(N(C)CCN4CCCCC4)CC3)c(F)c2)nc1-c1cnn(C(C)C)c1` in terms of Activity is 4%

// field: Activity; key: `CCCN(C)C1CCN(c2ccc(Nc3ncc(C)c(-c4cnn(C(C)C)c4)n3)cc2F)CC1` ; value = 3%

* * *

# TESTED_SYSTEM: Tyrosine-protein kinase JAK1 (Homo sapiens, UniProt P23458)
# ASSAY_REMARKS: Inhibition of human JAK1 (866 to end residues) assessed as residual activity at 100 nM using GEEPLYWSFPAKK as substrate after 40 mins in presence of [gamma33P]-ATP by scintillation counting based radiometric assay relative to control
Items are presented alongside their recorded Activity.
API: value field is a number in %; no unit string.

Solved entries:
compound=CC(C)n1cc(-c2nc(Nc3ccc(N4CCC(N5CCCCC5)CC4)c(F)c3)ncc2F)cn1 experimental_endpoint=Activity u=% test_result=36
compound=CCCCn1cc(-c2nc(Nc3ccc(N4CCN(C)CC4)c(F)c3)ncc2F)cn1 experimental_endpoint=Activity u=% test_result=49
compound=Cc1cnc(Nc2ccc(N3CCC(N(C)CCN4CCN(C)CC4)CC3)c(F)c2)nc1-c1cnn(C(C)C)c1 experimental_endpoint=Activity u=% test_result=24
compound=CCN1CCN(c2ccc(Nc3ncc(F)c(-c4cnn(C(C)C)c4)n3)c(F)c2)CC1 experimental_endpoint=Activity u=% test_result=113
compound=CCCN(CCN1CCOCC1)C1CCN(c2ccc(Nc3ncc(C)c(-c4cnn(C(C)C)c4)n3)cc2F)CC1 experimental_endpoint=Activity u=% test_result=20
compound="Cc1cnc(Nc2ccc(N3CCC(N(C)CC4CCCO4)CC3)c(F)c2)nc1-c1cnn(C(C)C)c1 (stereo not drawn)" experimental_endpoint=Activity u=% test_result=23
compound=CCN(CCN1CCOCC1)C1CCN(c2ccc(Nc3ncc(C)c(-c4cnn(C(C)C)c4)n3)cc2F)CC1 experimental_endpoint=Activity u=% test_result=23
compound=CC(C)n1cc(-c2nc(Nc3ccc(N4CCC(N(C)C)CC4)c(F)c3)ncc2F)cn1 experimental_endpoint=Activity u=% test_result=57

// sample `CCCN(C)C1CCN(c2ccc(Nc3ncc(C)c(-c4cnn(C(C)C)c4)n3)cc2F)CC1` , its Activity was 24

# Activity of `Cc1cnc(Nc2ccc(N3CCC(N(C)CC4CC4)CC3)c(F)c2)nc1-c1cnn(C(C)C)c1` = 20

The compound listed as `CCOCCN(C)C1CCN(c2ccc(Nc3ncc(C)c(-c4cnn(C(C)C)c4)n3)cc2F)CC1` shows Activity equal to 19

Entry `CCCCN(C)C1CCN(c2ccc(Nc3ncc(C)c(-c4cnn(C(C)C)c4)n3)cc2F)CC1` , Activity reported as 27

The value of Activity measured for the compound `Cc1cnc(Nc2ccc(N3CCC(N(C)CCN4CCOCC4)CC3)c(F)c2)nc1-c1cnn(C(C)C)c1` turned out to be 20

* * *

Recorded measurements of Activity, one per entry
# TESTED_SYSTEM: Tyrosine-protein kinase JAK2 (Homo sapiens, UniProt O60674)
# ASSAY_REMARKS: Inhibition of human JAK2 (808 to end residues) assessed as residual activity at 100 nM using KTFCGTPEYLAP as substrate after 40 mins in presence of [gamma33P]-ATP by scintillation counting based radiometric assay relative to control
Answers without a unit are incomplete; give the number and then its unit.

Summary for this compound, `CCCCN(C)C1CCN(c2ccc(Nc3ncc(C)c(-c4cnn(C(C)C)c4)n3)cc2F)CC1` : Activity is 4%

Activity reported for this compound `CCCCn1cc(-c2nc(Nc3ccc(N4CCN(C)CC4)c(F)c3)ncc2F)cn1` : 15%

Cc1cnc(Nc2ccc(N3CCC(N(C)CC4CCCO4)CC3)c(F)c2)nc1-c1cnn(C(C)C)c1 (centres undefined) yielded Activity of 10%

Notebook: `CCN1CCN(c2ccc(Nc3ncc(F)c(-c4cnn(C5CCCC5)c4)n3)cc2F)CC1` , Activity read as 27%

Data origin, for the record: ChEMBL document CHEMBL4321837
